Experimental Target: glycine binding pocket of the NMDA receptor (Rattus norvegicus)
Construct: For isolation of the cell membranes, the cortices are homogenized; from tissue; host or cells: rat cerebral cortex membranes (male Sprague-Dawley)
Assay Explanation: [3H]MDL-105,519 displacement studies (rat cortical membranes)
Condition Details: displacement of 2 nM [3H]-MDL-105,519, rat cortical membranes; read-out: NMDA-MDL 105519-r-CTX - IC50
Observed Property: IC50 (nM)

Some molecules with known IC50 results, for comparison:
- O=C(O)COc1ccccc1NC(=O)COc1cc(C(=O)O)cc2cc(Cl)cc(Cl)c12: 55
- COCC(Oc1cc(C(=O)O)cc2cc(Cl)cc(Cl)c12)C(=O)Nc1ccccc1 (stereo not shown): 1370

(1) CN(C(=O)COc1cc(C(=O)O)cc2cc(Cl)cc(Cl)c12)c1cccc(CC(=O)O)c1
(2) O=C(COc1cc(C(=O)O)cc2cc(Cl)cc(Cl)c12)NCc1ccccc1
Task: Returns: the argument ( 1 or 2 ) having the larger IC50. // return label of chosen record
Result: 1

* * *

Experimental Target: glycine binding pocket of the NMDA receptor (Rattus norvegicus, UniProt P35439)
Construct: For isolation of the cell membranes, the cortices are homogenized; from tissue; host or cells: rat cerebral cortex membranes (male Sprague-Dawley)
Assay Explanation: [3H]MDL-105,519 displacement studies (rat cortical membranes)
Condition Details: displacement of 2 nM [3H]-MDL-105,519, rat cortical membranes; read-out: NMDA-MDL 105519-r-CTX - IC50
Observed Property: IC50 (nM)

(P) O=C(O)COc1ccccc1CNC(=O)COc1cc(C(=O)O)cc2cc(Cl)cc(Cl)c12
(Q) O=C(COc1cc(C(=O)O)cc2cc(Cl)cc(Cl)c12)Nc1ccc(O)cc1
Task: Hi, I'm comparing two records. Which one has the lower IC50, P or Q ? // return label of chosen record
Result: P

(A) COC(=O)c1ccccc1NC(=O)COc1cc(C(=O)O)cc2cc(Cl)cc(Cl)c12
(B) O=C(COc1cc(C(=O)O)cc2cc(Cl)cc(Cl)c12)Nc1ccc(-c2nnn[nH]2)cc1
Task: Hi, I'm comparing two records. Which one has the lower IC50, A or B ? // return label of chosen record
Result: B
(B: 1260 nM, A: 4270 nM)

* * *

Experimental Target: NMDA receptor glycine B site (Rattus norvegicus)
Assay Explanation: Whole cell patch-clamp recordings, rat hippocampal neurons (NMDA/D-Serine currents)
Format: cell-based
Condition Details: NMDA 200 μM + D-Serine 1 μM, -70 mV, read-out: NMDA-PC-r-HIC-NAM - IC50
Observed Property: IC50 (µM)

* O=C(O)Cc1ccc(NC(=O)COc2cc(C(=O)O)cc3cc(Cl)cc(Cl)c23)cc1 | 0.51

(I) O=C(COc1cc(C(=O)O)cc2cc(Cl)cc(Cl)c12)Nc1ccccc1OCC(=O)N1CCOCC1
(II) O=C(O)Cc1ccccc1NC(=O)COc1cc(C(=O)O)cc2cc(Cl)cc(Cl)c12
(III) CN(C(=O)COc1cc(C(=O)O)cc2cc(Cl)cc(Cl)c12)c1ccc(C(=O)O)cc1
(IV) NCc1ccc(NC(=O)COc2cc(C(=O)O)cc3cc(Cl)cc(Cl)c23)c(OCC(=O)O)c1
(V) O=C(COc1cc(C(=O)O)cc2cc(Cl)cc(Cl)c12)Nc1cccc(OCC(=O)N2CCOCC2)c1
Task: Order these by IC50, descending, and give the full ranking. Returns: the labels arranged in the requested order.
Result: III, II, I, V, IV
(III: 0.727 µM, II: 0.356 µM, I: 0.169 µM, V: 0.087 µM, IV: 0.023 µM)

(I) O=C(COc1cc(C(=O)O)cc2cc(Cl)cc(Cl)c12)NCc1ccccc1
(II) COCC(Oc1cc(C(=O)O)cc2cc(Cl)cc(Cl)c12)C(=O)Nc1ccccc1OC (centres unmarked)
Task: Hi, I'm comparing two records. Which one has the lower IC50, I or II ? // return label of chosen record
Result: II
(II: 0.288 µM, I: 0.465 µM)

(I) O=C(COc1cc(C(=O)O)cc2cc(Cl)cc(Cl)c12)Nc1ccccc1C(=O)O
(II) O=C(O)c1cc(OCC(=O)N2CCOc3c(CO)cccc32)c2c(Cl)cc(Cl)cc2c1
Task: Hi, I'm comparing two records. Which one has the lower IC50, I or II ? // return label of chosen record
Result: II
(II: 0.253 µM, I: 0.493 µM)

* * *

Experimental Target: glycine binding pocket of the NMDA receptor (Rattus norvegicus, UniProt P35439)
Construct: For isolation of the cell membranes, the cortices are homogenized; from tissue; host or cells: rat cerebral cortex membranes (male Sprague-Dawley)
Assay Explanation: [3H]MDL-105,519 displacement studies (rat cortical membranes)
Condition Details: displacement of 2 nM [3H]-MDL-105,519, rat cortical membranes; read-out: NMDA-MDL 105519-r-CTX - IC50
pIC50: −log10 of the molar value.
Observed Property: pIC50

Some compounds with known pIC50 results, for comparison:
- CN(C(=O)COc1cc(C(=O)O)cc2cc(Cl)cc(Cl)c12)c1cccc(C(=O)O)c1 [Example 31]: 5.96
- O=C(COc1cc(C(=O)O)cc2cc(Cl)cc(Cl)c12)Nc1cccc(OCc2nnn[nH]2)c1 [Example 92]: 6.18

(I) COCC(Oc1cc(C(=O)O)cc2cc(Cl)cc(Cl)c12)C(=O)Nc1ccccc1OC (centres unmarked) [Example 74]
(II) O=C(COc1cc(C(=O)O)cc2cc(Cl)cc(Cl)c12)Nc1cccc(Cc2nnn[nH]2)c1 [Example 90]
(III) COc1cccc(NC(=O)COc2cc(C(=O)O)cc3cc(Cl)cc(Cl)c23)c1 [Example 6]
Task: Order these by pIC50, descending, and give the full ranking. Returns: the labels arranged in the requested order.
Result: II, I, III

* * *

Experimental Target: NMDA receptor glycine B site (Rattus norvegicus, UniProt P35439)
Assay Explanation: Whole cell patch-clamp recordings, rat hippocampal neurons (NMDA/D-Serine currents)
Type: cell-based
Condition Details: NMDA 200 μM + D-Serine 1 μM, -70 mV, read-out: NMDA-PC-r-HIC-NAM - IC50
Observed Property: IC50 (µM)

Some molecules with known IC50 results, for comparison:
* O=C(COc1cc(C(=O)O)cc2cc(Cl)cc(Cl)c12)Nc1ccccc1CO | 0.258
* O=C(O)COc1ccccc1CNC(=O)COc1cc(C(=O)O)cc2cc(Cl)cc(Cl)c12 | 0.059
* O=C(COc1cc(C(=O)O)cc2cc(Cl)cc(Cl)c12)Nc1ccccc1OCc1nnn[nH]1 | 0.065

(I) O=C(O)COc1ccccc1NC(=O)COc1cc(C(=O)O)cc2cc(Cl)cc(Cl)c12
(II) O=C(COc1cc(C(=O)O)cc2cc(Cl)cc(Cl)c12)Nc1ccc(O)cc1
(III) O=C(O)c1cc(OCC(=O)N2CCCc3ccccc32)c2c(Cl)cc(Cl)cc2c1
(IV) O=C(O)Cc1cccc(NC(=O)COc2cc(C(=O)O)cc3cc(Cl)cc(Cl)c23)c1
Task: Ascending sort, IC50. Returns: the labels arranged in the requested order.
Result: I, IV, II, III
(I: 0.05 µM, IV: 0.178 µM, II: 0.287 µM, III: 0.542 µM)

* * *

Experimental Target: NMDA receptor glycine B site (Rattus norvegicus, UniProt P35439)
Assay Explanation: Calcium FLIPR studies, rat cortical neurons (NMDA/D-Serine induced intracellular calcium)
Format: cell-based
Parameters: Primary neurons are prepared from cortices of embryonal rats at day 17 of pregnancy; endogenous in cells; host or cells: primary rat cortical neurons (E17, 11-13 DIV)
Condition Details: rat cortical neurons; stimulation with 30 μM NMDA and 1 μM D-Serine; antagonist pre-incubated 10 min; read-out: NMDA-FLIPR-rCTX-NAM - IC50
pIC50: −log10 of the molar value.
Observed Property: pIC50

- O=C(COc1cc(C(=O)O)cc2cc(Cl)cc(Cl)c12)Nc1ccccc1OCc1nnn[nH]1: 5.81

(P) CN(C(=O)COc1cc(C(=O)O)cc2cc(Cl)cc(Cl)c12)c1ccccc1C(=O)O
(Q) O=C(O)COc1cc(C(=O)O)cc2cc(Cl)cc(Cl)c12
Task: Returns: the argument ( P or Q ) having the larger pIC50. // return label of chosen record
Result: P

* * *

Experimental Target: glycine binding pocket of the NMDA receptor (Rattus norvegicus, UniProt P35439)
Construct: For isolation of the cell membranes, the cortices are homogenized; from tissue; host or cells: rat cerebral cortex membranes (male Sprague-Dawley)
Assay Explanation: [3H]MDL-105,519 displacement studies (rat cortical membranes)
Condition Details: displacement of 2 nM [3H]-MDL-105,519, rat cortical membranes; read-out: NMDA-MDL 105519-r-CTX - IC50
Observed Property: IC50 (nM)

• O=C(O)c1cc(OCC(=O)N2CC(C(=O)O)Oc3ccccc32)c2c(Cl)cc(Cl)cc2c1 (stereo not drawn) [Example 43] = 3070

(P) COc1ccccc1N1CCC(Oc2cc(C(=O)O)cc3cc(Cl)cc(Cl)c23)C1=O (stereo not drawn) [Example 75]
(Q) O=C(COc1cc(C(=O)O)cc2cc(Cl)cc(Cl)c12)Nc1ccccc1C(=O)O [Example 3]
(R) O=C(O)CCc1cccc(NC(=O)COc2cc(C(=O)O)cc3cc(Cl)cc(Cl)c23)c1 [Example 96]
(S) NCc1ccc(NC(=O)COc2cc(C(=O)O)cc3cc(Cl)cc(Cl)c23)c(OCC(=O)O)c1 [Example 34]
Task: Order these by IC50, descending, and give the full ranking. Returns: the labels arranged in the requested order.
Result: P, Q, R, S

(I) O=C(O)c1cc(OCC(=O)N2CCCC2C(=O)O)c2c(Cl)cc(Cl)cc2c1 (stereo not drawn) [Example 35]
(II) O=C(O)Cc1ccccc1NC(=O)COc1cc(C(=O)O)cc2cc(Cl)cc(Cl)c12 [Example 15]
Task: Hi, I'm comparing two records. Which one has the lower IC50, I or II ? // return label of chosen record
Result: II
(II: 503 nM, I: 1420 nM)
